- target_of_assay: T1, recombinant rat CTGF protein (R&D Systems) (rat, UniProt Q9R1E9 25-347)
- T1 construct: Bought; also called rCTGF
- T1 sequence: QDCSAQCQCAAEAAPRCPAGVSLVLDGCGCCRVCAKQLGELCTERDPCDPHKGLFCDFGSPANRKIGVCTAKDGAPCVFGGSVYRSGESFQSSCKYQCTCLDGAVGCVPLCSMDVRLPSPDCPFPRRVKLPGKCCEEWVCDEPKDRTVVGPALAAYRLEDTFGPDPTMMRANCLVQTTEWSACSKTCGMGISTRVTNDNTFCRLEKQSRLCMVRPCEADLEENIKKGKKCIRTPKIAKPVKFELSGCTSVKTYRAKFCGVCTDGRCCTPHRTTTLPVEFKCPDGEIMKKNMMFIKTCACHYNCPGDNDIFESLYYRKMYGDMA
- protocol_details: SPR (Biacore)
Entries and their measured Kd follow.
Reply numerically in nM, unit not repeated.

INSERT INTO assay_data (binder, reported_endpoint, observed_result) VALUES
  ('lipocalin mutein of SEQ ID NO: 31 (designed binder, also called hNGAL mutein; not shown: C-terminal His-tag) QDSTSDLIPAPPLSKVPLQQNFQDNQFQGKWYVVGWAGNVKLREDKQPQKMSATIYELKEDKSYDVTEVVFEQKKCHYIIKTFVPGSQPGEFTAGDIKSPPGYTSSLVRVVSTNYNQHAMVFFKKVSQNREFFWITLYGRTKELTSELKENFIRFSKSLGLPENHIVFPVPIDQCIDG', 'Kd', 1.89);

input: // query Kd value for entry lipocalin mutein of SEQ ID NO: 5 (designed binder, also called hNGAL mutein; not shown: C-terminal His-tag) QDSTSDLIPAPPLSKVPLQQNFQDNQFQGKWYVVGKAGNALREDKEPPKMWATIYELKEDKSYDVTHVHFLTKKCKYLIDTFVPGSQPGEFTIGAIKSGPGLTSPLVRVVSTNYNQHAMVFFKWVSQNREWFTITLYGRTKELTSELKENFIRFSKSLGLPENHIVFPVPIDQCIDG
output: 1.23
